# TARGET_UNDER_TEST: M4 muscarinic receptor (Homo sapiens)
# Construct: expressed in transfected cells; host or cells: CHO (M4-CHO)
# Sequence (P08173 whole entry): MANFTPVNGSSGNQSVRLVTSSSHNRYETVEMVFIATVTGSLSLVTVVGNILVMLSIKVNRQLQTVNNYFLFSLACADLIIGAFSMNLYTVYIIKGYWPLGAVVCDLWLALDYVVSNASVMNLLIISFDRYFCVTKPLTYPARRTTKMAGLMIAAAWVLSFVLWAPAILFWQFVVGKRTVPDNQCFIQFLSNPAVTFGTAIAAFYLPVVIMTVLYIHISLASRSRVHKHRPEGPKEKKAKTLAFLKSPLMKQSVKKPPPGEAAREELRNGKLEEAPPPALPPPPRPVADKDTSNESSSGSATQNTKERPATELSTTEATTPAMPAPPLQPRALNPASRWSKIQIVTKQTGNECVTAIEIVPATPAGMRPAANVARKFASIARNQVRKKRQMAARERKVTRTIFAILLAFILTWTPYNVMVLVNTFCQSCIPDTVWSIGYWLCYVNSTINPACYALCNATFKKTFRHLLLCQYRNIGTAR
# PROTOCOL: Functional mobilization of intracellular calcium (FLIPR), M4-CHO cells
# Assay type: cell-based
# RUN_PARAMETERS: 100% efficacy = maximum response obtained with the Carbachol control
Measured Emax, listed per entry for reference.

Consider the reported Emax for these compounds:
In: What value of Emax on M4 muscarinic receptor (Homo sapiens) does CCOC(=O)N1C2CCC1CC(N1CCC(c3cc(-c4ccc(C(C)(C)C#N)cc4)ccc3OC)CC1)C2 (centres unmarked) have?
Out: 25 to 100%

In: Further, for `CCC(=O)c1ccc(OC)c(C2CCN([C@H]3C[C@H]4CC[C@H]3C4)CC2)c1` ?
Out: 25 to 100%

In: Further, for `CCOC(=O)N1CCC(CN2CCC(c3cc(-c4ccc(C(=O)NC)c(Cl)c4)ccc3OC)CC2)CC1` ?
Out: 25 to 100%

In: Further, for `COc1ccc(F)cc1C1(F)CCN(CC2CCOCC2)CC1` ?
Out: 25 to 100%

Next:
In: What value of Emax on M4 muscarinic receptor (Homo sapiens) does `COc1ccccc1C1CCN(C2CCN(C(=O)c3ccccc3)CC2)CC1` have?
Out: < 25%

In: Further, for COc1ccc(C#Cc2ccccc2)cc1C1CCN(C2CC3CC[C@H]2C3)CC1 (stereo in doubt) ?
Out: 25 to 100%

In: Further, for `COc1ccccc1C1CCN(C2CC(C)(C)CC(C)(C)C2)CC1` ?
Out: < 25%

In: Further, for Cc1ccccc1C1(O)CCN(CC2CC3C=CC2C3)CC1 (centres unmarked) ?
Out: 25 to 100%

---

Measured Emax, listed per entry for reference.
# TARGET_UNDER_TEST: M1 muscarinic receptor (Homo sapiens)
# Construct: expressed in transfected cells; host or cells: CHO (M1-CHO)
# Sequence (P11229 whole entry): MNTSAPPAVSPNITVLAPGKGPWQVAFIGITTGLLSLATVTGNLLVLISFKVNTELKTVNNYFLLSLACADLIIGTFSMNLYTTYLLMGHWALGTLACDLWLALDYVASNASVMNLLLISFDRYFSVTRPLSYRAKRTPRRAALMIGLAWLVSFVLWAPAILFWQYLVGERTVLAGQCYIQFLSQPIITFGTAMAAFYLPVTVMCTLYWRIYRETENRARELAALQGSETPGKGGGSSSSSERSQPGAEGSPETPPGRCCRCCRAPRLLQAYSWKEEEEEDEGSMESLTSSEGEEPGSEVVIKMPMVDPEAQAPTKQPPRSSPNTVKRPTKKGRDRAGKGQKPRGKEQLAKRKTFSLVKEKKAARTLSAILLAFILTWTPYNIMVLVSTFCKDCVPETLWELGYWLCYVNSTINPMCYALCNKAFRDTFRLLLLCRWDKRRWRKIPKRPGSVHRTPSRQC
# PROTOCOL: Functional mobilization of intracellular calcium (FLIPR), M1-CHO cells
# Type: cell-based
# RUN_PARAMETERS: 100% efficacy = maximum response obtained with the Carbachol control

In: Entry under review: COc1ccc(-c2ccc([S+](C)[O-])cc2)cc1C1CCN(C2CCOCC2)CC1 (stereo not shown) . Reported Emax?
Out: < 25%

Next:
In: Entry under review: `CC(C)Oc1ccccc1C1CCN([C@H]2C[C@H]3CC[C@H]2C3)CC1` . Reported Emax?
Out: 25 to 100%

In: Further, for CCOC(=O)N1C2CCC1CC(N1CCC(O)(c3cc(F)ccc3C)CC1)C2 (stereo not shown) ?
Out: 25 to 100%

In: Further, for COc1ccc(Cl)cc1C1CCN(CC2CC3C=CC2C3)CC1 (stereo not shown) ?
Out: 25 to 100%

---

# TARGET_UNDER_TEST: M2 muscarinic receptor (Homo sapiens, UniProt P08172)
# Construct: expressed in transfected cells; host or cells: CHO (M2-CHO)
# Sequence (P08172 1-466): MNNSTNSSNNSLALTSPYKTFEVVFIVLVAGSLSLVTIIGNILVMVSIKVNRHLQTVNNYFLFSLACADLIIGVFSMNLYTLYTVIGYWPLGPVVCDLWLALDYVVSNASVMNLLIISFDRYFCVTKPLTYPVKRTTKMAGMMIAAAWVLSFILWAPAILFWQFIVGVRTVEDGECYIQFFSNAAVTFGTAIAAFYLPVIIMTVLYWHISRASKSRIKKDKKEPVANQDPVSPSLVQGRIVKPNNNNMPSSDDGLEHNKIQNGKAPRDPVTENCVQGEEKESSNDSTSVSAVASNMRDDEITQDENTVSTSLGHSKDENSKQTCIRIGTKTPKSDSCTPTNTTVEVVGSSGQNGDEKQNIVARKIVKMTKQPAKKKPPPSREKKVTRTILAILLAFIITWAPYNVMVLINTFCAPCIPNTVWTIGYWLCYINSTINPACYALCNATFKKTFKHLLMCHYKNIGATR
# PROTOCOL: Functional mobilization of intracellular calcium (FLIPR), M2-CHO cells
# Format: cell-based
# RUN_PARAMETERS: 100% efficacy = maximum response obtained with the Carbachol control
Measured Emax, listed per entry for reference.

Consider the reported Emax for these molecules:
In: What value of Emax on M2 muscarinic receptor (Homo sapiens, UniProt P08172) does COc1ccccc1C1CCN(C2CCC(C3CCCCC3)CC2)CC1 (centres unmarked) have?
Out: < 25%

In: Further, for `COc1ccc(-c2ccccc2C2CCN([C@H]3C[C@H]4CC[C@H]3C4)CC2)cc1` ?
Out: < 25%

In: Further, for `COc1cccc(-c2ccc(OC)c(C3CCN([C@@H]4C[C@H]5CC[C@H]4C5)CC3)c2)c1` ?
Out: < 25%

In: Further, for Cc1ccc(Cl)cc1C1CCN(C2CC[C@H]3CC[C@H]2C3)CC1 (some centres unmarked) ?
Out: 25 to 100%

In: Further, for `COc1cccc(C(=O)COc2ccccc2C2CCN([C@H]3C[C@H]4CC[C@H]3C4)CC2)c1` ?
Out: 25 to 100%

In: Further, for `COc1cc(F)c(F)cc1C1CCN([C@@H]2C[C@H]3CC[C@H]2C3)CC1` ?
Out: < 25%

In: Further, for `COc1ccc(F)cc1C1CCN([C@@H]2C[C@H]3CC[C@H]2C3)CC1` ?
Out: 25 to 100%

In: Further, for `COc1ccccc1C1(C#N)CCN(C2CCCCC2)CC1` ?
Out: < 25%

Next:
In: What value of Emax on M2 muscarinic receptor (Homo sapiens, UniProt P08172) does COc1ccccc1C1CCN(C2CCC(C(C)(C)C)CC2)CC1 (centres unmarked) have?
Out: < 25%

In: Further, for Fc1ccccc1C1CCN(C2C[C@H]3CC[C@H]2C3)CC1 (some centres unmarked) ?
Out: < 25%

In: Further, for `COc1ccccc1C1CCN(CC2CCCC2)CC1` ?
Out: < 25%

In: Further, for `COc1ccccc1C1CCN(CC2CCCCC2)CC1` ?
Out: < 25%

In: Further, for `COc1ccc(-c2ccccc2C2CCN([C@H]3C[C@H]4CC[C@H]3C4)CC2)c(OC)c1` ?
Out: < 25%

---

# TARGET_UNDER_TEST: M1 muscarinic receptor (Homo sapiens)
# Construct: expressed in transfected cells; host or cells: CHO (M1-CHO)
# PROTOCOL: Functional mobilization of intracellular calcium (FLIPR), M1-CHO cells
# Format: cell-based
# RUN_PARAMETERS: 100% efficacy = maximum response obtained with the Carbachol control
Measured Emax, listed per entry for reference.

Consider the reported Emax for these molecules:
In: Entry under review: `COc1ccc(-c2ccccc2C2CCN([C@H]3C[C@H]4CC[C@H]3C4)CC2)cc1` . Reported Emax?
Out: 25 to 100%

In: Further, for COc1ccccc1C1CCN(CC2CC3C=CC2C3)CC1 (centres unmarked) ?
Out: 25 to 100%

In: Further, for CCOC(=O)N1C2CCC1CC(N1CCC(c3cc(F)ccc3OC)CC1)C2 (centres unmarked) ?
Out: 25 to 100%

In: Further, for `COc1ccc(Cl)cc1C1CCN(C2CCC3(CC2)OCCO3)CC1` ?
Out: 25 to 100%

In: Further, for COc1ccc(Cl)cc1C1CCN(CC2CC3CCC2CC3)CC1 (centres unmarked) ?
Out: < 25%

Next:
In: Entry under review: `COc1ccc(-c2cccc(Cl)c2)cc1C1CCN([C@@H]2C[C@H]3CC[C@H]2C3)CC1` . Reported Emax?
Out: < 25%

In: Further, for `CCOC(=O)N1CCC(CN2CCC(F)(c3cc(F)ccc3OC)CC2)CC1` ?
Out: 25 to 100%

In: Further, for `CCOC(=O)N1CCC(CN2CCC(c3cc(F)cc(F)c3OC)CC2)CC1` ?
Out: 25 to 100%

In: Further, for `CCOC(=O)N1CCC(CN2CCC(c3cccc4c3OCO4)CC2)CC1` ?
Out: 25 to 100%

---

# TARGET_UNDER_TEST: M4 muscarinic receptor (Homo sapiens)
# Construct: expressed in transfected cells; host or cells: CHO (M4-CHO)
# PROTOCOL: Functional mobilization of intracellular calcium (FLIPR), M4-CHO cells
# Format: cell-based
# RUN_PARAMETERS: 100% efficacy is the maximum response obtained with the Carbachol control
TEST_READOUT: Emax

Consider the reported Emax for these compounds:
In: Entry under review: COc1ccccc1C1CCN(C2CCCC(O)CCC2)CC1 (centres unmarked) . Reported Emax?
Out: 25 to 100%

In: Further, for O=C(NCc1cccc(C2CCN(C3C[C@H]4CC[C@H]3C4)CC2)c1)C1CC1 (some centres unmarked) ?
Out: < 25%

In: Further, for `CCOC(=O)N1CCC(N2CCC(c3cc(Cl)ccc3OC)CC2)CC1` ?
Out: 25 to 100%

Next:
In: Entry under review: `COc1ccc(-c2ccc(C(=O)Nc3nccs3)cc2)cc1C1CCN(C2CCOCC2)CC1` . Reported Emax?
Out: < 25%

These entries and their values trace back to patent US7880007B2.
